# method: Acute toxicity in mice
# recorded_conditions: in vivo; mouse, I.D. (so in the source)

[
  {
    "compound": "CC(O)C1C(=O)N2C(C(=O)O)=C(c3ccc(C[n+]4ccc(CS(=O)(=O)[N-]C#N)cc4)cc3)SC12 (stereo not shown)",
    "LD50": "> 3000 mg/kg"
  }
]
